- TGT: T1, human αVβ6 integrin on cells (human, UniProt P06756 31-1048; P18564 22-788)
- T1 construct: whole, on cells; Heterodimer on transfected cells (HEK 293, K562, 293T) or on αVβ6-positive tumour lines (HT29, Detroit-562); also called αVβ6 on HEK 293, K562, 293T-αVβ6, HT29, Detroit-562 cells
- PROTOCOL_TEXT: FMAT, HEK 293 cells overexpressing αVβ6, supernatant
Below, each entry is listed alongside its reported FMAT FL1.
Form field (numeric): enter value without unit.

[[record]]
binder = "sc 254 (antibody, V domains shown) VH: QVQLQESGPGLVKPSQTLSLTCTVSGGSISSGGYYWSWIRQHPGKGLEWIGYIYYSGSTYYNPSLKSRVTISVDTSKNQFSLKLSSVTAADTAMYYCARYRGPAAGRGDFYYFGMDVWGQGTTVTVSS VL: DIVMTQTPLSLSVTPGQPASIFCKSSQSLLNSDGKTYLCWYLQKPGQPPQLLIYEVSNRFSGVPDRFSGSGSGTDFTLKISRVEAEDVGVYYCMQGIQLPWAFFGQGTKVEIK"
assay_metric = "FMAT FL1"
numeric_result = 9180

[[record]]
binder = "sc 277 (antibody, V domains shown) VH: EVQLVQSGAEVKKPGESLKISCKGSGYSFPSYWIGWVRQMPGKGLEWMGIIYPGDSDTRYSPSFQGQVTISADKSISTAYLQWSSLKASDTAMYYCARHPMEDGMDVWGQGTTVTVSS VL: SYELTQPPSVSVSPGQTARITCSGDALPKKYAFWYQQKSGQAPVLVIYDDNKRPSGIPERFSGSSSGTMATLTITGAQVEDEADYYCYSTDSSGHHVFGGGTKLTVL"
assay_metric = "FMAT FL1"
numeric_result = 382

[[record]]
binder = "sc 161 (antibody, V domains shown) VH: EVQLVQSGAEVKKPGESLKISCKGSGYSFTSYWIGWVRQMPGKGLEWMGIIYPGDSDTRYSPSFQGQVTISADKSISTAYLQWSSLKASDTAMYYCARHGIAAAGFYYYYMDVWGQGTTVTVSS VL: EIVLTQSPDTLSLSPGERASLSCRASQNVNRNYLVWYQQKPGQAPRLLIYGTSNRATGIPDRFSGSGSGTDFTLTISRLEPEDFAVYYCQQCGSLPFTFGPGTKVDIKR"
assay_metric = "FMAT FL1"
numeric_result = 725

[[record]]
binder = "sc 298 (antibody, V domains shown) VH: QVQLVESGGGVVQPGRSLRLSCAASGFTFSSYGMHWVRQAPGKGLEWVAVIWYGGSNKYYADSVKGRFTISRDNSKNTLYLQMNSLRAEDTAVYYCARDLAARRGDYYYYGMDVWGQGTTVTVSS VL: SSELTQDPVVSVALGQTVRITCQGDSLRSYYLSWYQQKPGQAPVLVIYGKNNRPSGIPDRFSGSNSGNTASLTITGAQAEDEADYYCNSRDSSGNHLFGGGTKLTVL"
assay_metric = "FMAT FL1"
numeric_result = 2140


Name the recorded FMAT FL1 of the item sc 188 (antibody, V domains shown) VH: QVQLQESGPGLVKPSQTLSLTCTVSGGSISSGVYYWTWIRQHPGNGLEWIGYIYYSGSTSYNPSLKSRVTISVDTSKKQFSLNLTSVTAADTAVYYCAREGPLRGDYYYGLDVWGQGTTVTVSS VL: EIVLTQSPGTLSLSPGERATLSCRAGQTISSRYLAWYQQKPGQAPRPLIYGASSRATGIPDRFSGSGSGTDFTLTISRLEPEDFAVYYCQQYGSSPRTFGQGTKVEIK in your answer.
628
